// provenance: paper PMC5814546

# Method notes: Drug substance properties
# Type: physicochemical
# Test parameters: water

Structure	solubility
CC(C)[C@H](N)C(=O)NCCCS(=O)(=O)O	> 200 mg/mL

====

# Method notes: Phase I multiple ascending dose study of ALZ-801 capsule and tablet
# Format: in vivo, human
# Test parameters: both, human, plasma, oral, 265 mg, AUC24, plasma, Day 1, fed, ALZ-801 tablet 265 mg (Cohort D); mean ± SD

Molecule	AUC (ng·h/mL)
CC(C)[C@H](N)C(=O)NCCCS(=O)(=O)O [ALZ-801, 3-(L-valyl) amino-1-propanesulfonic acid]	10300
NCCCS(=O)(=O)O [tramiprosate, 3-amino-1-propanesulfonic acid]	3650

====

# Method notes: Single-dose ALZ-801 immediate-release tablet PK and food effect study
# Assay type: in vivo, human
# Test parameters: human, plasma, oral, 342 mg, C max, 342 mg ALZ-801 tablets, fed (Regimen D)
Assay metric: Cmax (ng/mL)

Molecule	Unit abbreviation	Reported result
NCCCS(=O)(=O)O [tramiprosate, 3-amino-1-propanesulfonic acid]	ng/mL	978

====

# Method notes: Phase I multiple ascending dose study of ALZ-801 capsule and tablet
# Format: in vivo, human
# Test parameters: both, human, plasma, oral, 256.5 mg, T max, ALZ-801 capsule 171 and 256.5 mg, day 1, fasted
Assay metric: Tmax (min)

Structure	Unit abbreviation	Reported result
CC(C)[C@H](N)C(=O)NCCCS(=O)(=O)O	min	30

====

# Method notes: Phase I single ascending dose study of ALZ-801 loose-filled capsule
# Assay type: in vivo, human
# Test parameters: both, human, plasma, oral, 100 mg, Plasma tramiprosate t ½, after tramiprosate MR tablet 100 mg; mean ± SD

Molecule	Unit abbreviation	half-life
NCCCS(=O)(=O)O [tramiprosate, 3-amino-1-propanesulfonic acid]	h	4.99

====

# Method notes: Single-dose ALZ-801 immediate-release tablet PK and food effect study
# Type: in vivo, human
# Test parameters: human, plasma, oral, 171 mg

Compound	half-life [min]
NCCCS(=O)(=O)O [tramiprosate, 3-amino-1-propanesulfonic acid]	774

====

# Method notes: Single-dose ALZ-801 immediate-release tablet PK and food effect study
# Type: in vivo, human
# Test parameters: human, plasma, oral, 205 mg, C max, 205 mg ALZ-801 tablets, fed (Regimen C)

Compound	Cmax
NCCCS(=O)(=O)O [tramiprosate, 3-amino-1-propanesulfonic acid]	638 ng/mL

====

# Method notes: Phase I multiple ascending dose study of ALZ-801 capsule and tablet
# Format: in vivo, human
# Test parameters: both, human, plasma, oral, 265 mg, AUC24, plasma, Day 7, fed, ALZ-801 tablet 265 mg twice daily (Cohort D); mean ± SD
Overview of reported AUC across a group of molecules:

Molecule	AUC, ng·h/mL
NCCCS(=O)(=O)O [tramiprosate, 3-amino-1-propanesulfonic acid]	5020
CC(C)[C@H](N)C(=O)NCCCS(=O)(=O)O	11200

====

Overview of reported AUC across a group of molecules:
# Method notes: Phase I multiple ascending dose study of ALZ-801 capsule and tablet
# Format: in vivo, human
# Test parameters: both, human, plasma, oral, 265 mg, AUC12, plasma, Day 1, fed, ALZ-801 tablet 265 mg (Cohort D); mean ± SD

Molecule	AUC / ng·h/mL
CC(C)[C@H](N)C(=O)NCCCS(=O)(=O)O	10300
NCCCS(=O)(=O)O [tramiprosate, 3-amino-1-propanesulfonic acid]	3300

====

# Method notes: Phase I multiple ascending dose study of ALZ-801 capsule and tablet
# Type: in vivo, human
# Test parameters: both, human, plasma, oral, 265 mg, T max, Day 7, fed, ALZ-801 tablet 265 mg twice daily (Cohort D), mean ± SD
Overview of reported Tmax across a group of molecules:

Molecule	Tmax / h
CC(C)[C@H](N)C(=O)NCCCS(=O)(=O)O [ALZ-801, 3-(L-valyl) amino-1-propanesulfonic acid]	2.11
NCCCS(=O)(=O)O [tramiprosate, 3-amino-1-propanesulfonic acid]	2.9
